Hey, just so you know, these numbers are from PubChem BioAssay AID2060602.

Test system: 648629-189-R-J1-PDC complex spheroids viability
Assay: Anticancer human tumor 648629-189-R-J1-PDC patient-derived bladder carcinoma cell line growth inhibition [CLK]
Conditions: curve of first compound; second compound 0.0316 µM
READOUT_KIND: IC50

Example entries begin here.
| COMPOUND | READOUT_KIND | ASSAY_RESULT |
| --- | --- | --- |
| CCc1c2c(nc3ccc(O)cc13)-c1cc3c(c(=O)n1C2)COC(=O)[C@]3(O)CC + CN1CCN(c2cc(C(=O)Nc3cc4cc(-c5cnn(C)c5)ccc4cn3)ccn2)CC1 | IC50 | < 3.16 nM |
| CC(=O)O[C@H]1C(=O)[C@@]2(C)[C@H]([C@H](OC(=O)c3ccccc3)[C@]3(O)C[C@H](OC(=O)[C@H](O)[C@@H](NC(=O)c4ccccc4)c4ccccc4)C(C)=C1C3(C)C)[C@]1(OC(C)=O)CO[C@@H]1C[C@@H]2O + CN1CCN(c2cc(C(=O)Nc3cc4cc(-c5cnn(C)c5)ccc4cn3)ccn2)CC1 | IC50 | < 31.6 nM |

Documented IC50 of C=CC(=O)Nc1cc(Nc2nccc(-c3cn(C)c4ccccc34)n2)c(OC)cc1N(C)CCN(C)C + CNC(=O)c1ccc(Nc2nc(OC3CCCC3)c3c(-c4ccc5nc(C)oc5c4)c[nH]c3n2)c(OC)c1 : > 300 nM

In plain terms, CCN1CCN(Cc2ccc(Nc3ncc(F)c(-c4cc(F)c5nc(C)n(C(C)C)c5c4)n3)nc2)CC1 + CNC(=O)c1ccc(Nc2nc(OC3CCCC3)c3c(-c4ccc5nc(C)oc5c4)c[nH]c3n2)c(OC)c1 has a documented IC50 of > 1000 nM

Documented IC50 of C=CC(=O)N1CCN(c2nc(=O)n(-c3c(C)ccnc3C(C)C)c3nc(-c4c(O)cccc4F)c(F)cc23)C(C)C1 (stereo not drawn) + CN1CCN(c2cc(C(=O)Nc3cc4cc(-c5cnn(C)c5)ccc4cn3)ccn2)CC1 : > 10000 nM

Measured IC50, CC(CO)NC(=O)c1cc(-c2ccc(Cl)cc2)nn(-c2cnn(C)c2)c1=O (stereo not drawn) + CN1CCN(c2cc(C(=O)Nc3cc4cc(-c5cnn(C)c5)ccc4cn3)ccn2)CC1 : > 10000 nM

The reported value for CCc1c2c(nc3ccc(O)cc13)-c1cc3c(c(=O)n1C2)COC(=O)[C@]3(O)CC + CNC(=O)c1ccc(Nc2nc(OC3CCCC3)c3c(-c4ccc5nc(C)oc5c4)c[nH]c3n2)c(OC)c1 in terms of IC50 is < 3.16 nM

Entry C=CC(=O)Nc1cc(Nc2nccc(-c3cn(C)c4ccccc34)n2)c(OC)cc1N(C)CCN(C)C + CN1CCN(c2cc(C(=O)Nc3cc4cc(-c5cnn(C)c5)ccc4cn3)ccn2)CC1 ; IC50 = > 300 nM

----------
The reader will find reported viability, T/C values listed item by item below.
Test system: 648629-189-R-J1-PDC complex spheroids viability
Assay: Anticancer human tumor 648629-189-R-J1-PDC cell line growth inhibition [CLK];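 on viability, T/C: drug exposure lasted seven days before viability readout; 100% = DMSO vehicle control wells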
Conditions: second compound 3.16 µM; first compound 0.0316 µM; stronger effect = lower value

Per the record, COc1c(OCCCN2CCOCC2)ccc2c3n(c(=NC(=O)c4cnc(N)nc4)nc12)CCN3 + CNC(=O)c1ccc(Nc2nc(OC3CCCC3)c3c(-c4ccc5nc(C)oc5c4)c[nH]c3n2)c(OC)c1 has viability, T/C of 16.1%

According to the records, this compound O=c1[nH]cc(F)c(=O)[nH]1 + CNC(=O)c1ccc(Nc2nc(OC3CCCC3)c3c(-c4ccc5nc(C)oc5c4)c[nH]c3n2)c(OC)c1 displays viability, T/C of 21.1%

# compound COc1cccc2c1C(=O)c1c(O)c3c(c(O)c1C2=O)CC(O)(C(=O)CO)CC3OC1CC(N)C(O)C(C)O1 (stereo not drawn) + CN1CCN(c2cc(C(=O)Nc3cc4cc(-c5cnn(C)c5)ccc4cn3)ccn2)CC1 ; its viability, T/C = 0.06%

Lab book: viability, T/C of COc1ccc([C@@H](O)c2cc(-c3ncnc4cc(N5CCOCC5)ccc34)c(F)cc2Cl)nn1 + CN1CCN(c2cc(C(=O)Nc3cc4cc(-c5cnn(C)c5)ccc4cn3)ccn2)CC1 noted as 0.06%

----------
Reported pIC50 values for the following compounds.
Tested on: 648629-189-R-J1-PDC complex spheroids viability
Test: Anticancer human tumor 648629-189-R-J1-PDC cell line growth inhibition [CLK]
Conditions: curve of first compound; second compound 0.1 µM
pIC50: −log10 of the molar value.

| COMPOUND | READOUT_KIND | ASSAY_RESULT |
| --- | --- | --- |
| Cn1ncnc1[C@H]1c2n[nH]c(=O)c3cc(F)cc(c23)N[C@@H]1c1ccc(F)cc1 + CN1CCN(c2cc(C(=O)Nc3cc4cc(-c5cnn(C)c5)ccc4cn3)ccn2)CC1 | pIC50 | < 7.00 |
| CC1(C)CCC(CN2CCN(c3ccc(C(=O)NS(=O)(=O)c4ccc(NCC5CCOCC5)c([N+](=O)[O-])c4)c(Oc4cnc5[nH]ccc5c4)c3)CC2)=C(c2ccc(Cl)cc2)C1 + CN1CCN(c2cc(C(=O)Nc3cc4cc(-c5cnn(C)c5)ccc4cn3)ccn2)CC1 | pIC50 | < 5.00 |

Here is the next item to consider.
Entry COc1cccc2c1C(=O)c1c(O)c3c(c(O)c1C2=O)CC(O)(C(=O)CO)CC3OC1CC(N)C(O)C(C)O1 (stereo not drawn) + CN1CCN(c2cc(C(=O)Nc3cc4cc(-c5cnn(C)c5)ccc4cn3)ccn2)CC1 , pIC50 reported as > 7.50

----------
System: 648629-189-R-J1-PDC complex spheroids viability
Experiment: Anticancer human tumor 648629-189-R-J1-PDC cell line growth inhibition [CLK];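 on viability, T/C: drug exposure lasted seven days before viability readout; 100% = DMSO vehicle control wells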
Details: second compound 1 µM; first compound 0.00316 µM; stronger effect = lower value
READOUT_KIND: viability, T/C

Example entries and their recorded answers appear below.
| COMPOUND | TARGET_OR_SYSTEM | ASSAY_RESULT |
| --- | --- | --- |
| CCN1CCN(Cc2ccc(Nc3ncc(F)c(-c4cc(F)c5nc(C)n(C(C)C)c5c4)n3)nc2)CC1 + CN1CCN(c2cc(C(=O)Nc3cc4cc(-c5cnn(C)c5)ccc4cn3)ccn2)CC1 | 648629-189-R-J1-PDC complex spheroids viability | 0.42% |
| CCc1c2c(nc3ccc(O)cc13)-c1cc3c(c(=O)n1C2)COC(=O)[C@]3(O)CC + CNC(=O)c1ccc(Nc2nc(OC3CCCC3)c3c(-c4ccc5nc(C)oc5c4)c[nH]c3n2)c(OC)c1 | 648629-189-R-J1-PDC complex spheroids viability | 11.9% |
| COc1c(OCCCN2CCOCC2)ccc2c3n(c(=NC(=O)c4cnc(N)nc4)nc12)CCN3 + CN1CCN(c2cc(C(=O)Nc3cc4cc(-c5cnn(C)c5)ccc4cn3)ccn2)CC1 | 648629-189-R-J1-PDC complex spheroids viability | 1.95% |

Okay, next one:
Quick note, viability, T/C for Cn1ncnc1[C@H]1c2n[nH]c(=O)c3cc(F)cc(c23)N[C@@H]1c1ccc(F)cc1 + CNC(=O)c1ccc(Nc2nc(OC3CCCC3)c3c(-c4ccc5nc(C)oc5c4)c[nH]c3n2)c(OC)c1 landed at 17.2%

----------
System: 648629-189-R-J1-PDC complex spheroids viability
Assay: Anticancer human tumor 648629-189-R-J1-PDC cell line growth inhibition [CLK];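 on viability, T/C: drug exposure lasted seven days before viability readout; 100% = DMSO vehicle control wells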
Details: second compound 3.16 µM; first compound 10 µM; stronger effect = lower value
READOUT_KIND: viability, T/C (%)
The response must be a number in % with no trailing unit.

| COMPOUND | viability, T/C [%] |
| --- | --- |
| C#Cc1c(F)ccc2cc(O)cc(-c3ncc4c(N5CC6CCC(C5)N6)nc(OCC56CCCN5CC(F)C6)nc4c3F)c12 (stereo not given) + CN1CCN(c2cc(C(=O)Nc3cc4cc(-c5cnn(C)c5)ccc4cn3)ccn2)CC1 | 0.15 |
| COc1cccc2c1C(=O)c1c(O)c3c(c(O)c1C2=O)CC(O)(C(=O)CO)CC3OC1CC(N)C(O)C(C)O1 (stereo not given) + CNC(=O)c1ccc(Nc2nc(OC3CCCC3)c3c(-c4ccc5nc(C)oc5c4)c[nH]c3n2)c(OC)c1 | 1.4 |
| C=CC(=O)N1CCN(c2nc(=O)n(-c3c(C)ccnc3C(C)C)c3nc(-c4c(O)cccc4F)c(F)cc23)C(C)C1 (stereo not given) + CN1CCN(c2cc(C(=O)Nc3cc4cc(-c5cnn(C)c5)ccc4cn3)ccn2)CC1 | 0.11 |
| CC(Nc1ccc2c(c1)OCCn1cc(N3C(=O)OCC3C(F)F)nc1-2)C(N)=O (stereo not given) + CNC(=O)c1ccc(Nc2nc(OC3CCCC3)c3c(-c4ccc5nc(C)oc5c4)c[nH]c3n2)c(OC)c1 | 15.9 |
| C#Cc1c(F)ccc2cc(O)cc(-c3ncc4c(N5CC6CCC(C5)N6)nc(OCC56CCCN5CC(F)C6)nc4c3F)c12 (stereo not given) + CNC(=O)c1ccc(Nc2nc(OC3CCCC3)c3c(-c4ccc5nc(C)oc5c4)c[nH]c3n2)c(OC)c1 | 17.9 |

Record summary for O=c1[nH]cc(F)c(=O)[nH]1 + CN1CCN(c2cc(C(=O)Nc3cc4cc(-c5cnn(C)c5)ccc4cn3)ccn2)CC1 : reported viability, T/C = 0.1

Consider CC(Nc1ccc2c(c1)OCCn1cc(N3C(=O)OCC3C(F)F)nc1-2)C(N)=O (stereo not given) + CN1CCN(c2cc(C(=O)Nc3cc4cc(-c5cnn(C)c5)ccc4cn3)ccn2)CC1 . Its measured viability, T/C is 0.14

Recorded viability, T/C (compound CC1(C)CCC(CN2CCN(c3ccc(C(=O)NS(=O)(=O)c4ccc(NCC5CCOCC5)c([N+](=O)[O-])c4)c(Oc4cnc5[nH]ccc5c4)c3)CC2)=C(c2ccc(Cl)cc2)C1 + CNC(=O)c1ccc(Nc2nc(OC3CCCC3)c3c(-c4ccc5nc(C)oc5c4)c[nH]c3n2)c(OC)c1 ): 17.3

response.value for CC(CO)NC(=O)c1cc(-c2ccc(Cl)cc2)nn(-c2cnn(C)c2)c1=O (stereo not given) + CN1CCN(c2cc(C(=O)Nc3cc4cc(-c5cnn(C)c5)ccc4cn3)ccn2)CC1 (field: viability, T/C) = 0.18

Item: CC(=O)O[C@H]1C(=O)[C@@]2(C)[C@H]([C@H](OC(=O)c3ccccc3)[C@]3(O)C[C@H](OC(=O)[C@H](O)[C@@H](NC(=O)c4ccccc4)c4ccccc4)C(C)=C1C3(C)C)[C@]1(OC(C)=O)CO[C@@H]1C[C@@H]2O + CNC(=O)c1ccc(Nc2nc(OC3CCCC3)c3c(-c4ccc5nc(C)oc5c4)c[nH]c3n2)c(OC)c1 | viability, T/C: 72.7
